# Tested on: P. falciparum 3D7 trophozoites
# Experiment notes: Metabolomic fingerprint profiling LC-MS
# Type: cell-based, Plasmodium falciparum
# Conditions: metabolite GMP; S2 Table Metabolomics, change in metabolite level after compound treatment
Record Criterion met whenever GMP is at -0.4 or higher; record Criterion not met when lower.

Below are worked cases with known answers.
| Molecule | Group label |
| --- | --- |
| COc1ccccc1CNC(=O)CCn1c(=O)[nH]c2ccsc2c1=O [MMV019066] | Criterion met |
| CN(C)c1ccc(C=Cc2nc(=O)c3ccccc3o2)cc1 [MMV006309] | Criterion met |
| COc1ccc(C2=C(c3ccc(OC)cc3)C3(c4ccccc4)C(=O)C2(c2ccccc2)C2C(=O)N(c4ccc(C)cc4)C(=O)C23)cc1 (centres unmarked) [MMV666101] | Criterion met |
| Cc1cc(C)c2c(c1)OCN(Cc1ccccc1Cl)C2 [MMV006558] | Criterion not met |
| CN(C)c1ccc(C(O)(c2ccc(N(C)C)cc2)c2ccc(N(C)C)cc2)cc1 [MMV665941] | Criterion not met |
| COc1ccccc1N=C1C(=O)c2ccccc2C(O)=C1N1CCCCC1 [MMV085203] | Criterion met |

State whether the measured GMP reaches -0.4, counting equality as reaching it, for CCN1CCN(Cc2ccc(NC(=O)c3cc4ccc5cccnc5c4[nH]3)cc2)CC1 [MMV020548]
Criterion met

State whether the measured GMP reaches -0.4, counting equality as reaching it, for Cc1ccc(N2C(=O)C3C(C2=O)C2(c4ccccc4)C(=O)C3(c3ccccc3)C(c3ccccc3)=C2c2ccccc2)cc1 (centres unmarked) [MMV666062]
Criterion met

State whether the measured GMP reaches -0.4, counting equality as reaching it, for Cc1cc(Nc2ccc(C)c(Cl)c2)n2nc(C(F)(F)F)nc2n1 [MMV665874]
Criterion met

State whether the measured GMP reaches -0.4, counting equality as reaching it, for CSc1ccccc1C(=O)Nc1nc(-c2ccccn2)cs1 [MMV001246]
Criterion met

State whether the measured GMP reaches -0.4, counting equality as reaching it, for Cc1ccc(-c2cc3c(SCC(=O)Nc4cc(C(F)(F)F)ccc4Cl)nccn3n2)cc1 [MMV396680]
Criterion met

State whether the measured GMP reaches -0.4, counting equality as reaching it, for c1ccc2cc3c(Nc4ccc(N5CCOCC5)cc4)ccnc3cc2c1 [MMV006861]
Criterion met

State whether the measured GMP reaches -0.4, counting equality as reaching it, for CCc1ccc(Nc2cc(C)c3ccc(O)cc3n2)cc1 [MMV000570]
Criterion not met

====

# System: P. falciparum 3D7 trophozoites
# Experiment notes: Metabolomic fingerprint profiling LC-MS
# Type: cell-based, Plasmodium falciparum
# Conditions: S2 Table Metabolomics; metabolite dTDP
dTDP less than 0.2 is T; dTDP greater than or equal to 0.2 is F.

| Compound | Group label |
| --- | --- |
| Cc1ccc(-c2cc3c(nn2)-c2ccccc2C3=O)cc1 [MMV666021] | T |
| Cc1ccc(N2C3c4ccccc4N(S(=O)(=O)c4ccc(C)cc4)C2c2ccccc2N3S(=O)(=O)c2ccc(C)cc2)cc1 [MMV007160] | F |
| O=C(O)C1Cc2c([nH]c3ccccc23)C(c2ccc(Cl)cc2Cl)N1 (stereo not shown) [MMV008138] | F |

Does this compound meet the criterion dTDP < 0.2? CSc1ccccc1C(=O)Nc1nc(-c2ccccn2)cs1 [MMV001246]
F

Does this compound meet the criterion dTDP < 0.2? CC(C)(C)c1ccc(O)c(CNC2CCCCC2)c1 [MMV665785]
T
